Assignment: determine reported IC50 for the given binders.
Biological target: T1, Nluc-IL23R fusion protein (human, UniProt Q5VWK5 22-629)
T1 construct: range 22-629; expressed with a secretion signal in HEK293 cells; used as crude membrane preparation; also called hIL-23R; human IL-23R; not shown: Nanoluc protein from the expression plasmid N1371 (Promega), N-terminal of IL-23R
T1 sequence (looked up): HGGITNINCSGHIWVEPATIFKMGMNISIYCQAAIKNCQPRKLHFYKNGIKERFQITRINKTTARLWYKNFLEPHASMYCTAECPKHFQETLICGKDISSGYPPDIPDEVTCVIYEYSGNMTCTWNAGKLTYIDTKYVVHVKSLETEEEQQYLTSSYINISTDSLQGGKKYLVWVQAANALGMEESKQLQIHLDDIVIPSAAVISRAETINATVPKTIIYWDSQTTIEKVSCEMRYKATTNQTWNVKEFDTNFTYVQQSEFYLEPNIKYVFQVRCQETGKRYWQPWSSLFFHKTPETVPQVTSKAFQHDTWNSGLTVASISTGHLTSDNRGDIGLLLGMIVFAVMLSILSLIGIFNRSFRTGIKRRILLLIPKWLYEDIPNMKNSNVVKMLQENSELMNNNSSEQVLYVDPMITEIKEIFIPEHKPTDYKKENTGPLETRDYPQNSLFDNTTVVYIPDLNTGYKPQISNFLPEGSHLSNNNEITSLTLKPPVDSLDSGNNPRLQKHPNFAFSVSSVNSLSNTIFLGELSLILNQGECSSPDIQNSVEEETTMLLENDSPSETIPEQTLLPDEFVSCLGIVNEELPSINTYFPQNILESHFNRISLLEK
Test: BRET competition vs TAMRA-labelled peptide, Nluc-IL23R membranes
*1 amine or outer side, *2 acyl side, *3 side chain or, on linkers, in order; H or OH if unused. Bridges are numbered along the chain shown (N, C = ends). [ ]: non-standard residue; d: D form. 4‑Aminomethyl‑phenylacetyl = 4-aminomethyl-phenylacetyl unit, its amine closes the lactam, O=C(Cc1ccc(CN[*:1])cc1)[*:2]; 2Nal = N[C@@H](Cc1ccc2ccccc2c1)C(=O)O; AEF = NCCOc1ccc(C[C@H](N)C(=O)O)cc1; αMeL = CC(C)C[C@](C)(N)C(=O)O
The answer is to be given in nM; state only the numeric part.

Which measured IC50 value corresponds to [4‑Aminomethyl‑phenylacetyl]SCWQC[AEF][2Nal][αMeL]E[dR]-NH2 (lactam N-10; bridge 3-6; not fully specified (bridges); printed as [4-Aminomethyl-phenylacetyl](1c)*SC(2a)WQC(2a)[Y(2-aminoethoxy)][2-Nal][2-Me-Leu]E(1c)[{d}R]-[NH2], Y = Y(2-aminoethoxy), R = D-Arg) [Ref 80] ? 0.18

# IC50 lookup, item H-DESCWQCWWLKR-NH2 (lactam 2-11; bridge 4-7; not fully specified (bridges)) [Ref 4] 180
